Molecular target: CYP2C9 (Homo sapiens)
Sequence (P11712 whole entry): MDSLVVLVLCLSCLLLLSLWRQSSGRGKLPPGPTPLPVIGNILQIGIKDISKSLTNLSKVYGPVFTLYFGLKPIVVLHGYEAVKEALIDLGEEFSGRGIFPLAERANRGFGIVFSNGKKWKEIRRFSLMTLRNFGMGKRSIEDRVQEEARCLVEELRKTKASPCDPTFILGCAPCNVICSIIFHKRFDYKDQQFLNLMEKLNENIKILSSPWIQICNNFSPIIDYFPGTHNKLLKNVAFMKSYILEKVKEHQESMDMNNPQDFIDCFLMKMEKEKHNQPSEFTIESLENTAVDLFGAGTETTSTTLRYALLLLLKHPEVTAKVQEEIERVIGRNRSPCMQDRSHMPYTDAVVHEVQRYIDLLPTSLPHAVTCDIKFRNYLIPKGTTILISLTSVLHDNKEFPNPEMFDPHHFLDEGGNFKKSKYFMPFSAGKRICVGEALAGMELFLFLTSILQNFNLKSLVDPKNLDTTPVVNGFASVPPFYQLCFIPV
Experiment: in vitro
Settings: microsomes, pH 7.4

| entry-smiles | value-units | activity at 3.33 µM |
| --- | --- | --- |
| O=C(O)c1cc(-c2ccc(/C=C3\SC(=S)N(CCc4ccccc4)C3=O)o2)ccc1Cl | % | 59.9 |

* * *

Test system: P-gp
Assay: in vitro
Conditions: human, Caco-2, pH 7.4, Papp B-to-A, single replicates (R1, R2)

| compound | value-units | Papp B→A |
| --- | --- | --- |
| O=C(O)c1cc(-c2ccc(/C=C3\SC(=S)N(CCc4ccccc4)C3=O)o2)ccc1Cl [NBCoV1] | ×10⁻⁶ cm/s | 20.9 |
